# Test system: Tyrosine-protein kinase ABL1 (Homo sapiens), P00519 [Q252H]
# Experimental Context: at 1 µM
Reported inhibition values follow for various compounds

[
  {
    "Record Smiles": "Nc1ccc(C#Cc2cncnc2Nc2ccc(OCc3cccc(F)c3)c(Cl)c2)cc1",
    "inhibition, %": 2.24
  },
  {
    "Record Smiles": "COC(=O)Nc1nc2cc(Oc3ccc(NC(=O)Nc4cccc(Br)c4)cc3)ccc2[nH]1",
    "inhibition, %": 57.8
  },
  {
    "Record Smiles": "NS(=O)(=O)c1cccc(-c2cc3ccncc3cc2OCc2ccccc2)c1",
    "inhibition, %": 6.44
  },
  {
    "Record Smiles": "CS(=O)(=O)CCNCc1nc(-c2ccc3ncnc(Nc4ccc(OCc5cccc(C(F)(F)F)c5)cc4)c3c2)cs1",
    "inhibition, %": 1.75
  },
  {
    "Record Smiles": "O=C(Nc1ccc(Oc2ccc3[nH]c(NC(=O)c4ccco4)nc3c2)cc1)Nc1cc(C(F)(F)F)ccc1F",
    "inhibition, %": 91.6
  },
  {
    "Record Smiles": "CN(C)CCCn1c(-c2nonc2N)nc2cnccc21",
    "inhibition, %": 2.62
  },
  {
    "Record Smiles": "NS(=O)(=O)c1cccc(Nc2cc(-c3ccc(F)cc3)n[nH]2)c1",
    "inhibition, %": 18.2
  },
  {
    "Record Smiles": "COc1cccc(-n2ncc3c(N/N=C/c4ccc(S(C)(=O)=O)cc4)ncnc32)c1",
    "inhibition, %": 95
  },
  {
    "Record Smiles": "COc1cc2ncnc(Nc3ccc(C)c(O)c3)c2cc1OC",
    "inhibition, %": 81.8
  },
  {
    "Record Smiles": "Cc1ccc2c(c1)/C(=N/Nc1ccc(S(N)(=O)=O)cc1)C(=O)N2",
    "inhibition, %": 7.52
  },
  {
    "Record Smiles": "Cc1cc(Cl)cc2c1NC(=O)C2=NNc1ccc(S(N)(=O)=O)cc1",
    "inhibition, %": 7.11
  },
  {
    "Record Smiles": "OCc1ccc(-c2nc(-c3ccccn3)c(-c3ccc4c(c3)OCO4)[nH]2)cc1",
    "inhibition, %": 3.19
  },
  {
    "Record Smiles": "Cc1ccc(Nc2ccnc(Nc3cccc(C(N)=O)c3)n2)cc1O",
    "inhibition, %": 91.5
  },
  {
    "Record Smiles": "Cc1ccc(NC(=O)CC2CC2)cc1-c1ccc(C(=O)NCC2CC2)cc1",
    "inhibition, %": 4.54
  },
  {
    "Record Smiles": "COc1cc2ncn(-c3cc(OCc4ccccc4S(C)(=O)=O)c(C#N)s3)c2cc1OC",
    "inhibition, %": 43.9
  },
  {
    "Record Smiles": "CC(C)c1ccc2c(c1)NC(=O)/C2=N/Nc1ccc(S(N)(=O)=O)cc1",
    "inhibition, %": 26.6
  },
  {
    "Record Smiles": "O=S(=O)(CCOCc1ccc(-c2ccc3ncnc(Nc4ccc(OCc5cccc(F)c5)c(Cl)c4)c3c2)o1)c1ccccc1",
    "inhibition, %": 3.04
  },
  {
    "Record Smiles": "CN(C)C(=O)O[C@@H]1CN[C@@H](C#Cc2cc3ncnc(Nc4ccc(OCc5cccc(F)c5)c(Cl)c4)c3s2)C1",
    "inhibition, %": 2.17
  },
  {
    "Record Smiles": "CCn1c(-c2nonc2N)nc2ccc(F)cc21",
    "inhibition, %": 3.17
  },
  {
    "Record Smiles": "Oc1cccc(-c2nc(-c3ccccc3)[nH]c2-c2ccncc2)c1",
    "inhibition, %": 27
  }
]
